experiment: yeast display, Sf9 membrane polyspecificity reagent, FACS + sequencing; frameworks hold sequencing errors
test_readout: polyreactivity (PSR sort gate)

biopolymer_sequence	test_readout	test_value
QVQLVESGGGLVQAGGSLRLSCAASGITFGLYSMGWYRQAPGKQRELVASISQSGGSTYYADSVKGRFTISRDNAKNTVYLQMNSLKPEDTAVYYCNARRRFWDFSTRGYDSWGQGTQVTVSS	polyreactivity (PSR sort gate)	high polyreactivity
QVQLVESGGGLVQAGGSLRLSCAASGGTFGNYAMGWYRQAPGKERELVAAISTRGGSTYYADSVKGRFTISCDNAKNTVYLQMNSLKPEDTAVYYCNARIKRPRGVYGGDYWGQGTQVTVSS	polyreactivity (PSR sort gate)	high polyreactivity
QVQLVESGGGLVQAGGSLRLSCAASGSTFYRNAMGWYRQAPGKERELVAAISGSGARTYYADSVKGRFTISRDNAKNTVYLQMNSLKPEDTAVYYCNAKRYFRNHFRTGGMYYWGQGTQVTVSS	polyreactivity (PSR sort gate)	high polyreactivity
QVQLVESGGGLVQAGGSLRLSSAASGYTFSRNAMGWYRQAPGKERELVASISSRGGSTRYADSVKGRFTISRDNAKYTVYLQMNSLKPEDTAVYYCAVRGLYSPFTYGYWGQGTQVTVSS	polyreactivity (PSR sort gate)	high polyreactivity

###

experiment: yeast display, Sf9 membrane polyspecificity reagent, FACS + sequencing; frameworks hold sequencing errors
test_readout: polyreactivity (PSR sort gate)

Worked cases, polyreactivity (PSR sort gate) given:
biopolymer_sequence	test_value
QVQLVESGGGLVQAGGSLRLSCAASGSIFESNGMGCYRQAPGKERELVASISNGDITYFADSVKGRFTISRDNAKNTVYLQMNSLKPEDTAVYYCAATLYRNYVIFRYDYSGQGTQVTVSS	low polyreactivity
QVQLVESGGGVVQARGSLRLSCAASGSPFWYHDMGWYRQAPGKERELVASISWSGGDTYYADSVKGRFTISRDNAKNTVYLQMNSLKTVDTAVYYCAAATLVSFWLDYWGEGTQVTVSS	low polyreactivity
QVQLVESGGGLVQAGGSLRLSCAASGFTFGRYAMGWYRQAPGKERELVAAISRTGGRTYYADSVKGRFTISRDNAKNTVYLQMNSLKPEDTAVYYCAADKGGTYFNGDSWGQGTLVTVSS	high polyreactivity
QVQLVESGGGLVQAGGSLRLSCAASGSTFFYYTMGWYRQAPGKERELVASITNRGGNTYYADSVKGRFTISRDNAKTTVYLQMNSLKPEDTAVYYCARRYYWYSGRYDYWGQGTQVTVSS	high polyreactivity

Need polyreactivity (PSR sort gate) of QVQLVESGGGLVQAAGSLRLSCAASGFTFEKYVMGRYRQAPGKEREFVAAITRSGGRTYYADSVKGRFTISRDNAKNTVYLQMNSLKPEYTAVYYCAAAFSRSDTGGGSWGQGTQVTVSS , thanks.
high polyreactivity

###

assay: yeast display, Sf9 membrane polyspecificity reagent, FACS + sequencing; frameworks hold sequencing errors
test_readout: polyreactivity (PSR sort gate)

biopolymer_sequence	polyreactivity (PSR sort gate)
QVQLVESGGGLVQAGGSLRLSCAASGSTFGWNAMGRYRQAPGKERELVAAISSSGGSTNYADSVKGRFTISRDNAKNTVYLQMTSLKPEDTAVYYCAKARRPGYGYGYWGQGTQLTVSS	low polyreactivity
QVQLVESGGGLVQAGGSLRLSCAASGSTIGDNAMGWYRQAPGIERELGASMSWSGASTYYADSVKGRFTISRDNAKNTVYLQMNCLKPDDTAVYYCGVYYSYYSHLYHMLFYYWGQGTQVTVSS	low polyreactivity
QVQLVESGGGLVQAGGRLRLSCAASGSTFEINVMGWYRQAPGKERELFAAITYSGGSTYYADSVKGRFTISRDNEKNTVYLQMNSLKPEDTAVYYWNADYILDAQYDYWGQGTQVTVSS	low polyreactivity
QVQLVESGGGLVQAGGSLRLSCAASGFTFGNAMGWYRQAPGKERELVAAITVNGGTTNYADSVKGRFTISRDNAKNTVYLQMNSLKPEDTAVYYCNVDTSYGAAGDYWGQGTQVTVSS	low polyreactivity
QVQLVESGGGLVQAGGSLRLSCAASGRTFPPYGMGWNRQAPGKERELVADISKSSGSTNYADSVKARFTISRDKAKNTVYLQMNSVKPEDTAVYYCNVDLYRWSKLAGAYRMDYSGQGTQVTVSS	low polyreactivity
QVQLVESGGGLVQAGGSLRLSCAASGIIFGRYAMGWYRQAPGKERELVATISRSGGTTYYADSVKGRFTISRDNAKNTVYLQMNSLKPEDTAVYYCAARWTSRYDYWGQGTQVTVSS	high polyreactivity
QVQLVESGGGLVQAGGSLRLSCAASGITFYIYAMGWSRQAPGKEREFVASITWRGGSTYYADSVKGRFTISRDNAKNTVYLQMNSLKPEDTAVYYCNAEYSSSRYWYYDYWGQGTQVTVSS	high polyreactivity
QVQLVESGGGLVQAGGSLRLSCAASGFTFHDYAMGWYRQAPGKERELVAAITKSGGRTYYADSVKGRFTISRDNAKNTVYLQMNSLKPEDTAVYYCAAASYRSQYDYYYWGQGTQVTVSS	high polyreactivity
PLQLVESGGGLVQAGGSLRLSCAASGRTFRATTMGWYRQAPGKERELVAAISHSGGSTYYADSVKGRFTISRDNAKNTVYLQMYSLKPEDTAVYYCATDGGSYSWASPRVDYWGQGTQVTVSS	low polyreactivity
QVQLVESGGGLVQAGGSLRLSCAASGFIFSYYAMGWYRQAPGKERELVAGITRSGGSTYYADSVKGRFTISRDNAKNTVYLQMNSLKPEDTAVYYCAAGYFYHFSRYTNRYGYWGQGTQVTVSS	high polyreactivity

Can you share its polyreactivity (PSR sort gate)? I mean this sequence: QVQLVESGGGLVQAGGSLRLSCSASGRTFRGNAMGWSRHAPGKEREMVAAITSSGGSTYYADSVKGRFTISRDNAKNNVHLKMNSLKPEDTAVYYCAKTYVVPQYDYDYWGQGTQVTVSS
low polyreactivity

polyreactivity (PSR sort gate) for KVQLVESGGGLVQAGGSHRLSSAASGSTFDGYVMGLYRPAPGKERELVDAISSTGTRTYYADSVKGRFTISRDNATNTFYLQINSMKPEDTAVYYCAAEIDYRYRTVSYYYWGQGSQVTVSS ?
low polyreactivity

# query: polyreactivity (PSR sort gate) of entry QVQLVESGGGLVQAGGSLRLSFAASGNIFVYYAMGWYRQAPGKVRELVAAISFRGGTTYYADSVKGRFTISRDNAKNTVYLQMNSLKPEDTAVYYCAARTMPRVSRKTFGYWGQGTQVTVSS
low polyreactivity

I'd like to know its polyreactivity (PSR sort gate). The sequence in question is QVQLVESGGGLLQAGGSLRLSCAASGRTSDYYAMGWYRQAPGKERELVAAISRSGGRTYYADSVKGRFTISRDNAKNSVYFQMNSLQPEDTAVYYCNAGGTPYVLDEYWGQGTQVTVSS
high polyreactivity

Reported polyreactivity (PSR sort gate), sequence QFQLVESGGGLVQAGGSLRLSCAASGFTITFYAKGWYRQAPGKERELVAAIRTSDGRTYYADSVKGRFTISRDNAKNTVYLQMNSLKPEDTAVYYCAAQVYRPRARYYEYDYWGQGTQVTVSS : ____
high polyreactivity

Report polyreactivity (PSR sort gate) for QVQLVESGGGLVQAGGSLRLSCAASGITFGFNAMGWYRQAPGKERELVAAIRWGSGRTYYADSVKGRFTISRDNAKNTVYLQMNSLKPEDTAVYYCAAAPTTGKRPGYYYWGQGTQVTVSS please.
high polyreactivity

Using the record for QVQLVESGGGLVQAGGSLRLSCAASGSIFTVYAMGWYRPAPGKEREFVAAITGSGGRTYYADSVKGRFTISRDNAKNTVYLQMNSLKPEDTAVYYCAATTRPGYRYEGDYWGQGTQVTVSS , report its polyreactivity (PSR sort gate).
low polyreactivity

Dear colleague, I am looking for the recorded polyreactivity (PSR sort gate) of the following sequence: QVQLVESGGGLVQAGGSLRLSCAASGIIFGQNAMGWYRQAPGKERELVAAITISGGSTYYADSVKGRFTISRDNAKNTVYLQMNSLKPEDTAVYYCAARRVTWKDIARGYRYGYWGQGTQVTVSS
low polyreactivity

Which polyreactivity (PSR sort gate) value is on record for QVQLVESGGGLVQAGGSLRLRCAASGSTFLKNAKGWYRQAPGKERELVAAISYSTTRSYYADSVKGRFTISRDNAKNTVYLQMNSLKPEDTAVYYCAADGYWWTYTRYDYWGQGTQVTVSS ?
low polyreactivity

May I ask what polyreactivity (PSR sort gate) has been recorded for QVHLVESGGGLVQAGGSLRLSCAASGRIFGVYAMGWYRQAPGKERELVAVISWSGTSTYYADSVKGRFTISRDYAKNTVYLQMNSLKPEDTAVYYCAADYIGITDYYAIVVYLGYDSWGQGTQVTVSS ?
high polyreactivity

What value of polyreactivity (PSR sort gate) has been reported for the following sequence? QVQLVESVGGLVQAGGSLRLSCAASGITFDKYAMGWYRQATVKERELVAAISGSDGSTYYADSVKGRFTISRDNAKNNVYLQMNSLKPEDTAVYYCAAESEYAGTYEYDYWGQGTQVTVSS
low polyreactivity
